- TARGET ENTITY: Serine/threonine-protein kinase Chk2 (Homo sapiens)
- Sequence (O96017 whole entry): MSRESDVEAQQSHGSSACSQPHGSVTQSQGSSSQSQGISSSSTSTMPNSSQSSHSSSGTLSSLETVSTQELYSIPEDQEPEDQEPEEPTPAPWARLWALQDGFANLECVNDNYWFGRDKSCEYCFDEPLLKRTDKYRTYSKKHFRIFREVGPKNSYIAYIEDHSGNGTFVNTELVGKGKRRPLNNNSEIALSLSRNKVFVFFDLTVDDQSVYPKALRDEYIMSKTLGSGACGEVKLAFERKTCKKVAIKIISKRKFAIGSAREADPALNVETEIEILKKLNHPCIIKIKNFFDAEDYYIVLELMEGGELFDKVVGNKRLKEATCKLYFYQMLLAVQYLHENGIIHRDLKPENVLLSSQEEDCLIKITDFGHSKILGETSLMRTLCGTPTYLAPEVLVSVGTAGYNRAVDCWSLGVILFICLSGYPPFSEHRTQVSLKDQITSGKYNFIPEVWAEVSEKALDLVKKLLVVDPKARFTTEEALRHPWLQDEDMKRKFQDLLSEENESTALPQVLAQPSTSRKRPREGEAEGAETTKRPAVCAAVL
- ASSAY METHOD TEXT: Inhibition of CHK2 in human HeLa cells lysate pre incubated for 15 mins followed by ADP acyl phosphate probe addition and measured after 10 mins by LC-MS/MS analysis
QUANTITY NAME: IC50

Query :: I would be grateful if you could share the reported IC50 for CCOc1cc(N2CCC(O)CC2)ccc1Nc1ncc2c(n1)N(C)c1ccccc1C(=O)N2C .
Result :: > 50 µM

---

- ASSAY METHOD TEXT: MRT in Sprague-Dawley rat at 2 mg/kg, po measured up to 8 hrs by LC-MS/MS analysis
- Format: ADME, organism-based
- PARTICULARS: in vivo
QUANTITY NAME: MRT (h)
Please respond with the number in h and leave the unit unwritten.

Query :: Can you look up the measured MRT of CCOc1cc(N2CCC(O)CC2)ccc1Nc1ncc2c(n1)N(C)c1ccccc1C(=O)N2C for me?
Result :: 4.8
